# protocol summary: NCI Yeast Anticancer Drug Screen. Data for the bub3 strain (AID 167)
# experimental conditions: S. cerevisiae bub3 mutant strain, at 50.0 µM (retest, dose inferred, filed as 5.0), hits give high values
# Description: Growth inhibition of yeast strains with defined genetic alterations is measured as a screen for potential anti-cancer activity. Selected strains with alterations in DNA damage repair or cell cycle control were exposed to compounds and growth inhibition was measured relative to vehicle treated controls. The strain used in this assay is bub3
This is part of a sample that, as a whole, favours compounds with a hit. Of some 79,000 tested, about 15% had one in any assay.

| molecule | growth inhibition [%] |
| --- | --- |
| O=c1[nH]c2c([N+](=O)[O-])cccc2c2ccccc12 | 72 |
| CCC(/C=C/c1ccccc1)=N\Nc1ccc(Cl)cc1 | 86 |
| Cc1ccccc1NC(=O)c1c(C)oc2c1C(=O)c1ccccc1C2=O | 94 |
| O=C1C(/C=C/c2ccc(Cl)cc2)=NNC2N1N=C1NC(=O)C3(NN12)c1ccccc1-c1ccccc13 (configuration not stated) | -12 |
| O=C(/C=C/c1ccsc1)c1cccs1 | 66 |
| O=C(C(Cl)=C(N1CCCCC1)N1CCCCC1)C(Cl)Cl | 99 |
| CSC(=S)N/N=C/c1ccccc1 | 82 |
| Cc1cccc(C)c1NC(=O)C(C#N)C1=C(Cl)C(=O)c2ccccc2C1=O (configuration not stated) | 98 |
| O=C1c2cccc3cccc(c23)C(=O)N1O | 98 |
| Cc1cccc2c(Cl)c3cccc(C)c3nc12 | 18 |
| N#CCCC1C(C#N)C2(Cl)CC1(Cl)C(Cl)=C2Cl (configuration not stated) | 73 |
| COc1ccc2nc3cccc([N+](=O)[O-])c3c(NCCNCCO)c2c1 | 90 |
| CC1(C)CC(=O)C(C(=O)Nc2cccs2)=C(O)C1 | 70 |
| O=C(Nc1cccs1)c1ccccc1 | 8 |
| c1ccc2c(c1)N=C1CCCC3CCCC123 (configuration not stated) | 61 |
| CCCCCCC=C(C(=O)OCC)C(=O)OCC | 18 |
| COC(=O)c1cnc(Cl)c([N+](=O)[O-])c1 | 99 |
| CS(=O)(=O)O.[Ag] | 98 |
| CC(C)C(=O)CC(Sc1ccc(N)cc1)c1ccccc1 (configuration not stated) | 98 |
| Cc1ccc(S(=O)(=O)NC(=O)C2C(=O)CC3(CCCCC3)CC2=O)cc1 | 16 |
| Cc1nc2sc3c(c2c(=O)o1)CCCC3 | 51 |
| COc1ccc2c(c1)CCCC(Br)C2=O (configuration not stated) | 97 |
| COc1ccc(/C=C2\SC(=S)N(/C=C3\C(=O)N(c4ccccc4)N=C3C)C2=O)cc1OC | 17 |
| Nc1cc(Cl)ccc1Nc1ccccc1 | 92 |
| C/C1=C/C2OC(=O)C3(C)C2C(CC2(C)OC1=CC2=O)OC3(O)C(C)C (configuration not stated) | 16 |
| Cc1cccc2c1C1c3c(C)cccc3C(CC(=O)O)CC1CC2 (configuration not stated) | 96 |
| CCCCCCCCCCCCCCCCCCNC(=S)/N=C/c1c(O)c2ccccc2[nH]c1=O | 69 |
| CCN1CCC(O)(c2ccc(Oc3ccc(C)cc3)cc2)C(C(=O)c2ccc(Oc3ccc(C)cc3)cc2)C1 (configuration not stated) | 15 |
| CNCC(C)CNC | 69 |
| C/C(=N/NC(=S)Nc1ccccc1C)c1ccccn1 | 57 |
| CCN(CC)C(=S)SC(=S)N(CC)CC | 58 |
| Clc1nc(Cl)nc(Nc2cccc3ccccc23)n1 | 97 |
